Target: T1, 4H932-bH
T1 chain: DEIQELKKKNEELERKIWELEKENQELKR
Experiment: two-hybrid library CCNG1;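 note: natural log of median RNA to DNA barcode read ratio; higher means stronger binding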
So I've got a bunch of binders here, and I need their interaction score values.
Give bare numbers.

Q: Fill in reported interaction score for this entry: DKNQELEKKIEELERKIWELEKENQELKR [4H3364-bH]
A: -0.252

Q: Answer with the recorded interaction score of DEIQELKKENEELKRENWELKKEIQELKR [4H730-bH] only.
A: -1.05

Q: Name the recorded interaction score of the binder listed here: DEIQELEKKIEELKRENWELKKKIQELER [4H349-bH]
A: 0.654

Q: Please look at this binder and report its interaction score: DEIQELEKKIEELEREIWELEKKNQELKR [4H264-bH]
A: -0.203

Q: Let me know recorded interaction score for DKIQELKKKIEELERKIWELKKENQELER [4H2859-bH] , thanks.
A: -0.5

Q: Report interaction score, nothing else, for this binder: DKNQELEKKIEELERKNWELEKKIQELER [4H3381-bH]
A: -0.263

Q: Please report the measured interaction score for DKIQELEKKNEELKRENWELEKKIQELKR [4H2518-bH]
A: 0.604

Q: Identify measured interaction score corresponding to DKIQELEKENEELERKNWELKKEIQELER [4H2233-bH]
A: -1.01

Q: Kindly indicate its recorded interaction score. Item: DEIQELEKEIEELERKNWELEKKNQELKR [4H56-bH]
A: -0.0294

Q: Name the recorded interaction score of the item DKIQELKKENEELKREIWELEKKNQELKR [4H2760-bH] in your answer.
A: -1.86

Give one value of interaction score per listed binder.
1. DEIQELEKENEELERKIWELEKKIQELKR [4H166-bH]
2. DKIQELEKEIEELKRKNWELEKEIQELKR [4H2162-bH]
3. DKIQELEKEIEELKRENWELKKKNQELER [4H2143-bH]

A:
0.193
-0.531
-0.164

Batch: interaction score for all items listed.
1. DEIQELKKKNEELERKIWELEKENQELKR [4H932-bH]
2. DKIQELEKKNEELEREIWELKKENQELKR [4H2444-bH]

A:
1: -0.509; 2: 0.176
